test system: NCI-H522 lung; test: NCI tumour cell line growth inhibition, 48 h
reportedMetric: TGI

Below, each entry is followed by its recorded TGI result.
chemicalString: O=P(O)(O)CCP(=O)(O)O
TGI: > 100 µM
//
chemicalString: COc1cc(Nc2nc3ccccc3nc2C(=O)O)cc(OC)c1OC
TGI: > 100 µM

Lookup: Tell me measured TGI for CC(=O)N=C1N(/C=C2\C(=O)Oc3ccccc3C2=O)C(=O)/C(=C/c2cccc(Cl)c2Cl)N1C please.
Found: > 100 µM

###

system: OVCAR-8 ovarian; assay: NCI tumour cell line growth inhibition, 48 h
Reported TGI values follow for various molecules

Below, each entry is followed by its recorded TGI result.
molecule: Nc1nn2cc(F)cnc2c1C(=O)Nc1cncc(F)c1N1CCC(C(=O)N2CCN(C3COC3)CC2)CC1
TGI: 6.13 µM
//
molecule: CC12C/C(=C\c3ccccc3)C(=O)C3C1CCCC32
TGI: > 100 µM
//
molecule: [N-]=[N+]=NC1(Cc2ccccc2)C(=O)c2cccc3c2N(CCC3)C1=O (stereo not given)
TGI: > 100 µM

Lookup: Tell me measured TGI for O=C1C2SC34c5c2c2ccccc2n5CCC3CCCN14 (stereo not given) please.
Found: > 100 µM

Lookup: Tell me measured TGI for COc1cccc(CCNC(=O)Cc2ccccc2CCO)c1 please.
Found: > 100 µM

Lookup: Tell me measured TGI for NC(=S)N/N=C/C(=O)O please.
Found: > 100 µM

Lookup: Tell me measured TGI for Cc1[nH]c(=O)nc2nc3ccc(Cl)cc3c(NCCNCCO)c12 please.
Found: 21.6 µM

Lookup: Tell me measured TGI for C/C=C/C(CC(O)(C(F)(F)F)C(F)(F)F)=N/NC(N)=S please.
Found: > 10 µM
